- measured target: Sentrin-specific protease 8 (Homo sapiens) (UniProt Q96LD8)
- Sequence (Q96LD8 whole entry, looked up): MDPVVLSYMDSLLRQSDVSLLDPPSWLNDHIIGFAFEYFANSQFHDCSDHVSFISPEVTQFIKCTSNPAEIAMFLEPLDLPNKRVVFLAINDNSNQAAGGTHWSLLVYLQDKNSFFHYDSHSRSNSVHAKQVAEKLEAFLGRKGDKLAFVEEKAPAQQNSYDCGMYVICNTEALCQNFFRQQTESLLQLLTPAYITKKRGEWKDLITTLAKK
- method notes: blockers of SENP8 deneddylase activity – biochemical, fluorescence, Nedd8 protein substrate, uHTS, primary screen (AID 602440)
- condition parameters: recombinant SENP8, Nedd8 substrate fluorescence; at 20 µM; hits give high values
The whole screen tested about 360,000 compounds, of which about 2,300 (0.64%) were called active. What follows is part of a selection rich in actives, with near analogues and random picks from the rest.
Use 20% as the dividing line for inhibition, with the line itself on the true (1) side and lower values as false (0).

Sample answers from the record:
CC(C)CN1CCN(Cc2ccccc2C(F)(F)F)CC1CCO (stereo not given)
false (0)
CCN(CC)CCOC(=O)c1cc2cc(COC)ccc2o1
false (0)
CCC(C)(O)C(=O)OC1C(=O)OC2CC3C(C)=CC(=O)C(O)C3(C)C3C4(O)OCC23C1C(C)C4O (stereo not given)
false (0)

Record CC1=C2C(=O)C3C(CC=C4CC(OC5OC(O)C(O)C(O)C5CO)CCC43C)C2CCC12OC1CC(C)CNC1C2C (stereo not given) ; criterion: inhibition no lower than 20%. Met?
true (1)

Record CC(=O)OC1C2(CC3N4C(=O)C5(CO)SSC4(CC31O)C(=O)N5C)OC(C)C(C)(C)C2=O (stereo not given) ; criterion: inhibition no lower than 20%. Met?
false (0)

Record CC(=CCOc1ccc2ccc(=O)oc2c1)C1=CC(=O)C(C)(C)O1 ; criterion: inhibition no lower than 20%. Met?
false (0)

* * *

- measured target: Sentrin-specific protease 8 (Homo sapiens)
- method notes: blockers of SENP8 deneddylase activity – biochemical, fluorescence, Nedd8 protein substrate, uHTS, primary screen (AID 602440)
- condition parameters: recombinant SENP8, Nedd8 substrate fluorescence; at 20 µM
The campaign covered roughly 360,000 compounds. About 2,300 (0.64%) were called active. No stated cut-off is given here; in the data, active means inhibition mostly above about 40% (no sharp cut-off); inactive means mostly below about 27%. Only a selection was taken, and actives are over-represented in it overall.
Tick one outcome: active, inactive

Sample answers from the record:
C[C@]12CC[C@H](O)C[C@H]1CC[C@@H]1C2CC[C@]2(C)[C@@H](C3=CC(=O)OC3)[C@@H](O)C[C@]12O (some centres undefined)
inactive
O=C(O)C1CSC(c2cccnc2)N1 (centres undefined)
inactive
COc1ccc(C(=O)CC2C(=O)N(C)C(=O)N(C)C2=O)cc1
active
O=C1/C(=C\c2ccc3c(c2)OCO3)N2CCC1CC2
inactive
C[C@]12CCCCC1=CC(=O)C1C2CC[C@@]2(C)C1C[C@@H](F)[C@@H]2O (some centres undefined)
inactive

What outcome does the record of this test show for CCOC(=O)[C@]12Cc3ccccc3[C@H]1N(C1CCCCC1)C(=O)c1cc(OC)ccc12 ?
inactive

What outcome does the record of this test show for N[C@@H](Cc1c[nH]c2ccccc12)c1nnc(SCc2c(F)cccc2Cl)o1 ?
inactive

What outcome does the record of this test show for CC(Cc1ccccc1)NC=O (centres undefined) ?
active

What outcome does the record of this test show for CNC(=O)N(C)c1nnc(C(C)(C)C)s1 ?
inactive

What outcome does the record of this test show for O=C1N=c2ccccc2=C/C1=C\c1c(O)[nH]c(=S)[nH]c1=O ?
inactive

* * *

- measured target: Sentrin-specific protease 8 (Homo sapiens)
- method notes: blockers of SENP8 deneddylase activity – biochemical, fluorescence, Nedd8 protein substrate, uHTS, primary screen (AID 602440)
- condition parameters: recombinant SENP8, Nedd8 substrate fluorescence; at 20 µM; hits give high values
Screen size: about 360,000 compounds; about 2,300 (0.64%) were called active. The sample as a whole holds a higher share of actives than the screen did.
measured metric: inhibition

CCCCCCCCCCCCn1ccc(=N)cc1
26.2% (inactive)
CCOC(=O)CNC(=O)N1Cc2cc(N3CCCCC3)ccc2-n2nncc2C1
-24.7% (inactive)
O=c1[nH]c(=O)n(CCc2ccccc2)c(O)c1/C=N/N1CCOCC1
11.3% (inactive)

Recorded inhibition (molecule CN(C)C(=O)Oc1ccc2c(c1)O/C(=C\c1ccccc1)C2=O ): -9.7% (inactive)

* * *

- measured target: Sentrin-specific protease 8 (Homo sapiens)
- method notes: blockers of SENP8 deneddylase activity – biochemical, fluorescence, Nedd8 protein substrate, uHTS, primary screen (AID 602440)
- condition parameters: recombinant SENP8, Nedd8 substrate fluorescence; at 20 µM
The campaign covered roughly 360,000 compounds. About 2,300 (0.64%) were called active. Cut-off read from the data, not from the text of the source: active = inhibition mostly above about 40% (no sharp cut-off); inactive = mostly below about 27%. The sample holds actives, similar compounds and a random draw of the others, so the mix is not that of the screen.
Tick one outcome: active, inactive

COC1C(O)C(C)OC(OC2CCC3(C=O)C(CCC4C3CCC3(C)C(C5=CC(=O)OC5)CCC43O)C2)C1O (centres undefined)
active
O=C(O)CCn1cc(C=C2C(=O)NC(=S)NC2=O)c(-c2cccc(Br)c2)n1
inactive
CC(=O)Nc1ccc(C(=O)C(Cc2ccccc2)N(C)C)cc1 (centres undefined)
inactive
COC(=O)C1=C(c2cc3ccccc3o2)C[C@@H]2CC[C@H]1N2C(=O)NC1CCCCC1
inactive

What outcome does the record of this test show for COc1ccc2c(c1)[C@]13CCCCC1C(C2)N(C)CC3 (some centres undefined) ?
inactive

What outcome does the record of this test show for c1cc2c(cc1C1OCC3C(c4ccc5c(c4)OCO5)OCC13)OCO2 (centres undefined) ?
active

What outcome does the record of this test show for CC(Cc1ccccc1)NCCC(c1ccccc1)c1ccccc1 (centres undefined) ?
inactive

What outcome does the record of this test show for O=c1c2ccccc2nc(/C=C/c2ccco2)n1-c1ccccc1O ?
inactive

What outcome does the record of this test show for C[N+]12CN3CN(CN(C3)C1)C2 ?
inactive
